# target.under.test: T1, polypeptide GC3pep (human)
# T1 construct: also called membrane proximal polypeptide GC3pep
# T1 peptide: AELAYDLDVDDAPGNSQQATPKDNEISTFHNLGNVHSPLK
# method: ELISA, GC3pep coated, antibody 100 nM;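 further: detection with an HRP-conjugated secondary antibody and TMB substrate, color reaction stopped with HCl before absorbance reading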
Provide the recorded OD450 nm for the entries that follow.
Please respond with the number in OD450 nm and leave the unit unwritten.

The reported value for F1.62.9 (antibody, human IgG1, kappa, V domains shown, human-murine chimeric antibody) VH: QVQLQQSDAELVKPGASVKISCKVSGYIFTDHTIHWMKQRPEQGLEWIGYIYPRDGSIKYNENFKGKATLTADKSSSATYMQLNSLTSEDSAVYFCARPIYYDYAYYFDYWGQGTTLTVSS VL: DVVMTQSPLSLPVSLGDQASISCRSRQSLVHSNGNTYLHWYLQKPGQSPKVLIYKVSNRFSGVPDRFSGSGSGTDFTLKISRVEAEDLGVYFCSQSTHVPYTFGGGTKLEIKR in terms of OD450 nm is 0.13

OD450 nm in this record for F1.21.8 (antibody, human IgG1, kappa, V domains shown, human-murine chimeric antibody) VH: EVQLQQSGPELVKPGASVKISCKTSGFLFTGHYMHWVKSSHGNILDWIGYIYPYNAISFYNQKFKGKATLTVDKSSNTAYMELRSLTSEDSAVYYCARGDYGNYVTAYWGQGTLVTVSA VL: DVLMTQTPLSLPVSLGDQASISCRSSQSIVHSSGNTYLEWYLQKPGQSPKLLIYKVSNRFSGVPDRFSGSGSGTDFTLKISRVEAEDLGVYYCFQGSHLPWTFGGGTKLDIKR : 0.05

Looking up F3.81.19 (antibody, human IgG1, kappa, V domains shown, human-murine chimeric antibody) VH: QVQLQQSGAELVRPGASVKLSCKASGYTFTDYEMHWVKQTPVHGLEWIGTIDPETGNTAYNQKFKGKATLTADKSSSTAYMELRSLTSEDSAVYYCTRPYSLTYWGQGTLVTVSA VL: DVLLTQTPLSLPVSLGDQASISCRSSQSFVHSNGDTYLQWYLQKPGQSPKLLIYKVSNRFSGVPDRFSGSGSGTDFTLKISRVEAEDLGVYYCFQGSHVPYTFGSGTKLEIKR , I found its OD450 nm recorded as 2.94

Data provenance is patent US20260116991A1.
